Consider the following compounds and their measured Vd readings.
- Experiment notes: Volume of distribution at steady state in dog at 3 mg/kg, po or 1 mg/kg, iv by LC/MS/MS analysis
- Format: ADME, organism-based, Canis lupus familiaris
- Condition label: in vivo, read-out: Vdss
Dear colleague, please return just the value in L/kg, with no unit written.

[[record]]
molecule = "CC#C[C@@H](CC(=O)O)c1ccc(OCc2ccc(CN3CCC4(CCc5ccccc54)CC3)s2)cc1"
output_unit = "L/kg"
measured_number = 0.2


Kindly consider the entry below.
IN: What measured Vd goes with CC#C[C@@H](CC(=O)O)c1ccc(OCc2ccc(CN3CCCc4cccc(OC)c43)s2)cc1 ?
OUT: 1
